- Tested on: MS2 coat protein
- PROTOCOL: apparent KD of MS2 coat protein, switch OFF state (with FMN for OFF switches, without FMN for ON switches); designed switch direction (-1 OFF switch, 1 ON switch): 1; higher = weaker reporter binding
- REPORTED CONDITIONS: FMN input: 0 or 200 uM; Eterna round: R93 (includes R88 designs)
READOUT: apparent KD of MS2 coat protein (nM)
Numbers only, in nM.

See these solved cases before continuing.
CONSTRUCT SEQUENCE	VALUE MEASURED
GAGGACCUAGGAUAGGAUAUAUGAAUAAUUACAUGAGGAUCACCCAUGUCCAUUUAUAUGGGAACAUAGAAGGGUUCUGGUUAUC [SameState2 Malc#37]	60.6
UUUAGCUGCGGGCAGGAUAUGUAUUAAAAUACAUGAGGAUCACCCAUGUGCAGGUGUAACACCUGACAGAAGGGCCAAUCGCGGC [Bequre]	193
AAGACACAUGAGGAUCACCCAUGUCAAGAGAGACGAGGAUAUCUGAAAAAAAAAAAAAAAGGAGAAGGCGUGAAAA [Same State of Confusion]	69.3
AAAAAAUAAAAAAAGGAUAUAAUCGAUGGAACAUGAGGAUCACCCAUGUGACAUCGAAAAAUAAAAAAGAAGGAAAAAUAAAAAA [SS2: MS2 24]	11.2
AAUAAACAUGAGGAUCACCCAUGUUUUAAUAGUUGAGGAUAUACGGGUGAAAAUAGCAUAGUAGAAGGCGAGUGUA [SameState1 Malc#13]	36.8

Give one value of apparent KD of MS2 coat protein per listed sequence.
1. AUAUGAGCUAUUGAGGAUAUCCAUAACAAGACAUGAGGAUCACCCAUGUAAUCAAAACAAUAAUGGGAGAAGGCAAUAGCUCAAU [SS 2 M48]
2. UACACGCGGGCGCAGGAUAUGUCGCUGGUGACAUGAGGAUCACCCAUGUAUACCAUUGCGGUUGAGCAGAAGGGUGAGAAGCGUG [Raanlaza]
3. AAAUAAAGGACUGAGGAUAUACCACAUGAAACAUGAGGAUCACCCAUGUUAAAAAACAAAGGGUGGUAGAAGGCAGUCCACAAAC [Same State 2.5f ( so lets mod hyphema)]
4. GAAAAACAUGAGGAUCACCCAUGUAGAGAUAUGGGAGGAUAUACGAAGACGAAAGACGAAGUAGAAGGCCUAAAAG [Garnet 58]
5. AGGAAACAUGAGGAUCACCCAUGUAAAAAUAUGGGAGGAUAUACGAAGACGAAAGUAAGAGUAGAAGGCCUAAAAG [Garnet 9]
6. GGAAGACAUGAGGAUCACCCAUGUGGGAUUAUGGGAGGAUAUACAAAGACGAGAGUCAGAGUAGAAGGCCUAGGAA [salish99-ss1-120(!)]
7. AAUAUACAUGAGGAUCACCCAUGUUUUGGUGUAUGAGGAUAUAAAAAAAAUUAAAUAAAAUUAGAAGGCAUAAAUA [JR_SS001_Sub001]
8. AAUAAAAAUAGUUAGGAUAUGAGAAUUAAGACAUGAGGAUCACCCAUGUAAUUAAAACAAGUAAAUCAGAAGGGACAGGGUGAAA [JR_SS002_Sub204]

[44.1, 56.3, 12.1, 180, 90.6, 79.1, 48.7, 46]
